Source: the supplement of paper PMC8837787

- Tested on: Saccharomyces cerevisiae ABC16-Green Monster
- condition: 18 h; 30 °C; YPD
Counter-ions that a name gives are not always drawn.
The label t is reserved for IC50 growth inhibition strictly under 20 µM; f covers values equal to or above it.

## Input # strict comparison: is reported IC50 growth inhibition < 20 µM? input = C[C@@H]1COCCN1c1cc(C2(S(C)(=O)=O)CC2)nc(-c2cccc3[nH]ccc23)n1 [AZ-20]
## Output f

## Input Cool, now CN(Cc1ccc(Cl)s1)C(=O)Cn1ncc(Br)c(Br)c1=O
## Output f

## Input Cool, now CC1C=CC=CC=CC=CC=CC=CC=CC(OC2OC(C)C(O)C(N)C2O)CC2OC(O)(CC(O)CC(O)C(O)CCC(O)CC(O)CC(=O)OC(C)C(C)C1O)CC(O)C2C(=O)O (stereo not drawn) [Amphotericin B]
## Output f

## Input Cool, now Cc1nc([P+](c2ccccc2)(c2ccccc2)c2ccccc2)c(SCc2ccccc2)o1 [GNF-Pf-3891]
## Output t

More entries:
## Input # strict comparison: is reported IC50 growth inhibition < 20 µM? input = CNC(=O)c1nn(C)c2c1C(C)(C)Cc1cnc(Nc3ccc(N4CCN(C)CC4)cc3)nc1-2 [milciclib maleate]
## Output f

## Input Cool, now COc1cc(C=Cc2ccc(O)cc2)cc(OC)c1 [Pterostilbene]
## Output f

## Input Cool, now CC(C)Sc1cccc(C(=O)Nc2nnc(-c3ccnn3C(C)C)o2)c1 [CBR113]
## Output t

* * *

Exercise: for every item that follows, state its recorded log10(IC50 growth inhibition).
- Test system: Saccharomyces cerevisiae ABC16-Green Monster
- condition: 18 h; 30 °C; YPD
Lab note - IC50 growth inhibition converted to log10 from values in µM.

Each molecule below has a reported value. Please supply its log10(IC50 growth inhibition).
1. O=C1CCc2ccc(OCCCCN3CCN(c4cccc(Cl)c4Cl)CC3)cc2N1 [Aripiprazole]
2. CCCCCCCCCCCCCCCCCCOCC(COP(=O)([O-])OCC[N+](C)(C)C)OC (centres undefined) [Edelfosine]
3. Cc1c(C)n(CCCN(C)C)c2ncn3nc(-c4ccc(N(C)C)cc4)nc3c12
4. CN1C=C/C(=C/c2ccc3ccccc3[n+]2C)c2ccccc21
5. CNC1CC2OC(C)(C1OC)n1c3ccccc3c3c4c(c5c6ccccc6n2c5c31)C(=O)NC4 (centres undefined) [Staurosporine]

## Output
0.97
1.46
1.63
1.71
-0.69

Each molecule below has a reported value. Please supply its log10(IC50 growth inhibition).
1. OCCNc1nc(Nc2ccc(Cl)c(Cl)c2)nc2ccccc12
2. CC(=O)N(C1=C(N2CCOCC2)C(=O)c2ccccc2C1=O)c1cccc(Cl)c1 [GNF-Pf-2288]

## Output
[1.15, 1.62]

## Input If you can, please state the reported log10(IC50 growth inhibition) value of CC1COC(Cn2cncn2)(c2ccc(Oc3ccc(Cl)cc3)cc2Cl)O1 (centres undefined) .
## Output 1.59

* * *

Exercise: for every item that follows, state its recorded IC50 growth inhibition.
- System: Saccharomyces cerevisiae ABC16-Green Monster
- condition: 18 h; 30 °C; YPD

## Input Fill in the recorded IC50 growth inhibition for this molecule, with Saccharomyces cerevisiae ABC16-Green Monster as test system: Cc1cc(C(=O)ONC(=N)c2ccccc2)nn1C(C)(C)C
## Output 63.5 µM

## Input Cool, now COC(=O)Nc1nc2cc(C(=O)c3ccccc3)ccc2[nH]1
## Output 58.4 µM

## Input Cool, now Cn1ncc2c(NCc3ccc(-c4ccc(Cl)cc4)o3)ncnc21
## Output 61.9 µM

## Input Cool, now Cn1ncc2c(N3CCOCC3)nc(NCCc3c[nH]c4ccccc34)nc21
## Output 69.3 µM

Each molecule below has a reported value. Please supply its IC50 growth inhibition.
1. COC1=CC(=O)CC(C)C12Oc1c(Cl)c(OC)cc(OC)c1C2=O (configuration not stated)
2. O=C(Nc1nc(-c2ccccn2)cs1)c1cncn1-c1ccccc1
3. OC(c1cc(C(F)(F)F)nc2c(C(F)(F)F)cccc12)C1CCCCN1 (configuration not stated)
4. CCCCN(CCCC)CC(O)c1cc(Cl)cc2c1-c1ccc(Cl)cc1C2=Cc1ccc(Cl)cc1 (configuration not stated)

## Output
1: > 75 µM; 2: 26.2 µM; 3: 29.9 µM; 4: > 75 µM

* * *

Exercise: for every item that follows, state its recorded IC50 growth inhibition.
- Test system: Saccharomyces cerevisiae ABC16-Green Monster
- condition: 18 h; 30 °C; YPD
Numbers only, in µM.

## Input Fill in the recorded IC50 growth inhibition for this compound, with Saccharomyces cerevisiae ABC16-Green Monster as test system: COC(=O)Nc1nc2ccc(C(=O)c3ccccc3)cc2[nH]1
## Output 5.42

Now for another entry.
## Input Fill in the recorded IC50 growth inhibition for this compound, with Saccharomyces cerevisiae ABC16-Green Monster as test system: Cc1nn(C(=O)Nc2cccc(C(F)(F)F)c2)c(C)c1Sc1ncccn1
## Output 45

* * *

Exercise: for every item that follows, state its recorded IC50 growth inhibition.
- Tested on: Saccharomyces cerevisiae ABC16-Green Monster
- condition: 18 h; 30 °C; YPD
One number for each entry, in µM.

## Input If you can, please state the reported IC50 growth inhibition value of COc1cc(OC)cc(C(=O)NCC2Cc3cc(Cl)cc(-c4ccncc4)c3O2)c1 (stereo not given) .
## Output 14.4

Each compound below has a reported value. Please supply its IC50 growth inhibition.
1. O=C1NCN(c2ccccc2)C12CCN(CCCC(c1ccc(F)cc1)c1ccc(F)cc1)CC2
2. CCCn1c(NC(=O)c2ccc3ccccc3n2)nc2ccccc21
3. Cc1cc(NC(=O)C(C)C)n(-c2nc(C)c(C)c(=O)[nH]2)n1
4. O=c1c(Cl)c(Cl)cnn1-c1nc2ccccc2[nH]1

## Output
[23.3, 40, 3.87, 13.2]

* * *

Exercise: for every item that follows, state its recorded IC50 growth inhibition.
- Test system: Saccharomyces cerevisiae ABC16-Green Monster
- condition: 18 h; 30 °C; YPD
Answers are plain numbers, in µM.

Below, 2 molecules whose answers are already recorded.
## Input If you can, please state the reported IC50 growth inhibition value of Cc1cc(=O)nc(N/N=C/c2cc(C)n(CC(F)(F)F)c2C)[nH]1 .
## Output 81.9

## Input Cool, now CC(=O)OCC1OC([S-])C(OC(C)=O)C(OC(C)=O)C1OC(C)=O.CCP(CC)CC (stereo unspecified) [Auranofin]
## Output 27.4

Now for another entry.
## Input If you can, please state the reported IC50 growth inhibition value of CCC1(O)C(=O)OCc2c1cc1n(c2=O)Cc2cc3ccccc3nc2-1 (stereo unspecified) [Camptothecin] .
## Output 1.61

* * *

Exercise: for every item that follows, state its recorded IC50 growth inhibition.
- Tested on: Saccharomyces cerevisiae ABC16-Green Monster
- condition: 18 h; 30 °C; YPD
One number for each entry, in µM.

Each compound below has a reported value. Please supply its IC50 growth inhibition.
1. Nc1ccc2ncnc(Nc3ccc(OCc4cccc(F)c4)c(Cl)c3)c2c1
2. COc1cccc2c1C(=O)c1c(O)c3c(c(O)c1C2=O)CC(O)(C(=O)CO)CC3OC1CC(N)C(O)C(C)O1 (centres undefined)
3. CC(Oc1ccc(Cl)cc1Cl)c1nc(-c2ccc(NC(=O)c3ccco3)cc2)no1 (centres undefined)
4. CCC(=C(c1ccc(O)cc1)c1ccc(OCCNC)cc1)c1ccccc1 [Endoxifen]
5. N#Cc1c(N2CCCC2)nn(C(=O)Nc2ccc(Cl)c(Cl)c2)c1N
6. Cn1ccnc1CNCCS(=O)(=O)c1cccc(Nc2ccc(-c3cccc(F)c3)cn2)c1

## Output
1: 18.7; 2: 11.2; 3: 2.8; 4: 8.3; 5: 4.53; 6: 50.5

* * *

Exercise: for every item that follows, state its recorded IC50 growth inhibition.
- Test system: Saccharomyces cerevisiae ABC16-Green Monster
- condition: 18 h; 30 °C; YPD
One number for each entry, in µM.

## Input If you can, please state the reported IC50 growth inhibition value of COCCNc1cc(C(C)C)nc2c(-c3ccccc3)cnn12 .
## Output 52.6

## Input Cool, now CC1N(C)c2ccc(/C=C/c3cc[n+](C)cc3)cc2C1(C)C (configuration not stated)
## Output 55.2

## Input Cool, now C/C=C/[C@H]1O[C@@](O)([C@@H](C)[C@H](O)[C@H](C)[C@H]2OC(=O)/C(OC)=C\C(C)=C\[C@@H](C)[C@@H](O)[C@@H](CC)[C@@H](O)[C@H](C)C/C(C)=C/C=C/[C@@H]2OC)C[C@@H](O[C@H]2C[C@@H](O)[C@H](OC(=N)O)[C@@H](C)O2)[C@@H]1C [Concanamycin A]
## Output 6.1

## Input Cool, now CC(C)(C)n1nc(Cc2cccc3ccccc23)c2c(N)ncnc21
## Output 27.6

Each compound below has a reported value. Please supply its IC50 growth inhibition.
1. NC(=O)N1CCC(CC(=O)N2CCC([C@H]3c4ncc(Br)cc4CCc4cc(Cl)cc(Br)c43)CC2)CC1 [Lonarfanib]
2. CC(C)c1ccc(C2C3CCc4ccccc4C3=NN2CCO)cc1 (configuration not stated)
3. CC1COC(Cn2cncn2)(c2ccc(Oc3ccc(Cl)cc3)cc2Cl)O1 (configuration not stated) [Difenoconazole]
4. CCOC(=O)NC(=O)c1ccsc1NC(=O)c1nc2ccccc2s1
5. CC(C)c1cc(NCCCN2CCOCC2)n2ncc(-c3ccccc3)c2n1
6. Cc1c(C)n(CCCN(C)C)c2ncn3nc(COc4ccccc4)nc3c12

## Output
1: 20.4; 2: 49.9; 3: 3.17; 4: 34.6; 5: 25.1; 6: 39.6

Each compound below has a reported value. Please supply its IC50 growth inhibition.
1. CCS(=O)(=O)c1ncc(Cl)c(C(=O)Nc2ccc(C(=O)OC)cc2)n1
2. CCS(=O)(=O)N1CCN(c2ccc(Nc3ncc(C(N)=O)c(NC4CC4)n3)cc2)CC1 [Cerdulatinib]

## Output
17.4
8.06

Each compound below has a reported value. Please supply its IC50 growth inhibition.
1. COc1ccccc1C(C)NCC(=O)Nc1cc(C(F)(F)F)ccc1Cl (configuration not stated)
2. Cc1nn2c(=O)cc(-c3ccccc3)[nH]c2c1-c1ccc(F)cc1
3. O=C(Nc1cccc(C(F)(F)F)c1)Nc1ncc([N+](=O)[O-])s1
4. CCC(C)(C)c1ccc(OCCOCC[n+]2ccccc2)c(C(C)(C)CC)c1.[Cl-] [GNF-Pf-1618]

## Output
1. 32.4
2. 39
3. 52.4
4. 2.19
